SYSTEM: T1, Fcα/µ receptor (R&D systems) (UniProt Q8WWV6 17-450)
T1 sequence: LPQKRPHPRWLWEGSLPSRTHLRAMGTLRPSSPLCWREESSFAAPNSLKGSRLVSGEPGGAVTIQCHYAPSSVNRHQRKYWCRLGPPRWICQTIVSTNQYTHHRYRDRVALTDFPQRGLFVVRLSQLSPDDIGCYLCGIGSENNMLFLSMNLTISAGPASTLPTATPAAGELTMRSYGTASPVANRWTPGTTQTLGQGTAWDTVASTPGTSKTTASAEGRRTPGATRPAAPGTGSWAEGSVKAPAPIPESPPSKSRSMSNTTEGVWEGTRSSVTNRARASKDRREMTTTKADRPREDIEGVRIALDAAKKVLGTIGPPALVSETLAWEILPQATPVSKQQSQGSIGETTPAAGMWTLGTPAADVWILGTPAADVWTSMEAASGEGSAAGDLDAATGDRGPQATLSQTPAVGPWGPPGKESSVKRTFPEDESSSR
MEASUREMENT NOTES: ELISA, Fcα/µ receptor coated at 100 ng/well; detection HRP anti-IgM (F5µ)

| BINDER | binding result |
| --- | --- |
| [(CMVpHLA)2-(linker)2-(IgG Fc region)-(IgM Fc region)]5-(J chain D105K) (Fc fusion, not shown: IgG Fc) chain (part 1 of 2): […] chain (part 2 of 2): QDTAIRVFAIPPSFASIFLTKSTKLTCLVTDLTTYDSVTISWTRQNGEAVKTHTNISESHPNATFSAVGEASICEDDWNSGERFTCTVTHTDLPSPLKQTISRPKGVALHRPDVYLLPPAREQLNLRESATITCLVTGFSPADVFVQWMQRGQPLSPEKYVTSAPMPEPQAPGRYFAHSILTVSEEEWNTGETYTCVVAHEALPNRVTERTVDKSTGKPTLYNVSLVMSDTAGTCY […] | no binding |
| [(CMVpHLA)2-(linker)2-(IgG Fc region)-(IgM Fc region)]5-(J chain R106Q) (Fc fusion, not shown: IgG Fc) chain (part 1 of 2): […] chain (part 2 of 2): QDTAIRVFAIPPSFASIFLTKSTKLTCLVTDLTTYDSVTISWTRQNGEAVKTHTNISESHPNATFSAVGEASICEDDWNSGERFTCTVTHTDLPSPLKQTISRPKGVALHRPDVYLLPPAREQLNLRESATITCLVTGFSPADVFVQWMQRGQPLSPEKYVTSAPMPEPQAPGRYFAHSILTVSEEEWNTGETYTCVVAHEALPNRVTERTVDKSTGKPTLYNVSLVMSDTAGTCY […] | no binding |
| [(CMVpHLA)2-(linker)2-(IgG Fc region)-(IgM Fc region)]5-(J chain N107F) (Fc fusion, not shown: IgG Fc) chain (part 1 of 2): […] chain (part 2 of 2): QDTAIRVFAIPPSFASIFLTKSTKLTCLVTDLTTYDSVTISWTRQNGEAVKTHTNISESHPNATFSAVGEASICEDDWNSGERFTCTVTHTDLPSPLKQTISRPKGVALHRPDVYLLPPAREQLNLRESATITCLVTGFSPADVFVQWMQRGQPLSPEKYVTSAPMPEPQAPGRYFAHSILTVSEEEWNTGETYTCVVAHEALPNRVTERTVDKSTGKPTLYNVSLVMSDTAGTCY […] | no binding |
| [(CMVpHLA)2-(linker)2-(IgG Fc region)-(IgM Fc region)]5-(J chain R106A) (Fc fusion, not shown: IgG Fc) chain (part 1 of 2): […] chain (part 2 of 2): QDTAIRVFAIPPSFASIFLTKSTKLTCLVTDLTTYDSVTISWTRQNGEAVKTHTNISESHPNATFSAVGEASICEDDWNSGERFTCTVTHTDLPSPLKQTISRPKGVALHRPDVYLLPPAREQLNLRESATITCLVTGFSPADVFVQWMQRGQPLSPEKYVTSAPMPEPQAPGRYFAHSILTVSEEEWNTGETYTCVVAHEALPNRVTERTVDKSTGKPTLYNVSLVMSDTAGTCY […] | no binding |
